# TARGET: Cytochrome P450 3A4 (Homo sapiens)
# TEST: Cytochrome panel assay with activity outcomes; for activity, negative = inhibition: % is set by controls: 0 for no effect and ±100 for the full control effect
# CONDITION DESCRIPTION: recombinant CYP, pro-luciferin dealkylation, luminescence, p450-cyp3a4; series mostly up to 57.1 µM
In all, about 16,000 compounds went through this assay and about 5,100 (32%) were called active. Roughly 25% stayed inconclusive and do not appear here. The list shows a part of the results.
METRIC: activity, negative = inhibition

Request: Param readout = activity, negative = inhibition; param system = Cytochrome P450 3A4 (Homo sapiens); param query = "c1ccc2c(c1)C(=Nc1ccc(N=C3c4ccccc4-c4ccccc43)cc1)c1ccccc1-2" ; response: value
Response: -5.03% [at 11.4 µM] (inactive)

Request: Consider next the compound Cc1nc2ccc(S(=O)(=O)NC(CC(C)C)C(=O)O)cc2s1 (centres undefined) in the same way.
Response: -3.56% [at 2.29 µM] (inactive)

Request: Consider next the compound "N#C/C(=C\Nc1ccccn1)C(=O)c1ccco1" in the same way.
Response: -18.7% [at 11.4 µM] (inactive)

Request: One more compound: "FC(F)(F)c1cc(-c2ccco2)nc(NCCc2ccccc2)n1"
Response: 0.414% [at 2.29 µM] (inactive)

Request: Okay, and "O=C(O)c1cccc(OCCO)c1" ?
Response: -12.1% [at 11.4 µM] (inactive)

Request: Do the same for "Cc1ccc(N2CCN(CCC(=O)O)CC2)cc1" please
Response: -4.63% [at 11.4 µM] (inactive)

Request: // same read-out, input: "CC(=O)Nc1c(C)nn(-c2ccc(C)c(C)c2)c1C"
Response: -3.89% [at 11.4 µM] (inactive)

Request: Also check "CC(C)(C)N1C(=O)[C@H]2[C@H]3[C@H](O)[C@H](O)C/C(=N/NC(=O)OCc4ccccc4)[C@H]3CC[C@@H]2C1=O"
Response: -22.6% [at 11.4 µM] (inactive)

Request: Same for "O=C(C[C@@H](c1ccccc1)N1CCCCC1)c1ccccc1"
Response: -9.31% [at 11.4 µM] (inactive)

Request: // next record "O=C(O)c1ccc(C(=O)c2ccccc2C(=O)O)cc1C(=O)O"
Response: -0.636% [at 11.4 µM] (inactive)

Request: // query: "CCc1cc2c(Sc3nc4ccccc4s3)ncnc2s1"
Response: 6.04% [at 2.29 µM] (inactive)

Request: Now give it for "CC(=O)c1ccc(OC(=O)C2c3ccccc3Oc3ccccc32)cc1" too.
Response: 10.9% [at 2.29 µM] (inactive)

Request: Okay, and "CCn1ncc(C(=O)Nc2cc(C)on2)c1C" ?
Response: 6.4% [at 2.29 µM] (inactive)

Request: Next record, please: "Cc1cc(C(F)F)n2nc(C(=O)Nc3cccnc3Cl)nc2n1"
Response: 2.46% [at 2.29 µM] (inactive)

Request: Repeat with "Cc1nc(CN2CCCCC2)c(O)c(=O)[nH]1"
Response: -5.47% [at 11.4 µM] (inactive)

Request: Subsequent entry: CN(C(=S)Nc1ccccc1F)C1(c2ccccc2Cl)CCCCC1=O (centres undefined)
Response: -21.2% [at 2.29 µM] (inactive)

Request: One more compound: "CN(N=O)c1ccc(/C=C\c2ccnc3ccccc23)cc1"
Response: -15.2% [at 11.4 µM] (inactive)

Request: Queued: "O=C(O)C[C@H](NC(=O)CP(=O)(O)O)C(=O)O.[NH-][C@@H]1CCCC[C@@H]1[NH-].[Pt]"
Response: -3.72% [at 11.4 µM] (inactive)

Request: "Oc1cc(CN2COc3ccccc32)c(O)cc1CNC1CCCCC1" ?
Response: -5.1% [at 11.4 µM] (inactive)

Request: Can you handle "c1ccc(CCNc2nnnn2-c2ccccc2)cc1" next?
Response: -3.75% [at 2.29 µM] (inactive)

Request: Also, "CO[C@H]1COC(=O)CCC[C@H](C)[C@H](OC)COC(=O)C/C=C\[C@@H]1C" please.
Response: -29.6% [at 11.4 µM] (inactive)

Request: Same lookup for "Cc1ccc(S(=O)(=O)N[C@H](CN)C(=O)O)cc1" , please.
Response: -20.1% [at 11.4 µM] (inactive)

Request: Ok, now "Clc1ccc2c(NCCNc3ccnc4cc(Cl)ccc34)ccnc2c1"
Response: 4.32% [at 11.4 µM] (inactive)

Request: Would you mind doing "Cc1cccc(-n2c(Cn3nc(C)c([N+](=O)[O-])c3C)n[nH]c2=S)c1" as well?
Response: -17% [at 2.29 µM] (inactive)

Request: Follow-up entry: "CC(C)=C1C(=O)NN(c2ccc(F)c(Cl)c2)C1=O"
Response: -12.4% [at 11.4 µM] (inactive)

Request: What about this compound? "CCCOc1ccc(C(=O)CCNc2ccc(C)c(Cl)c2)cc1"
Response: 12.4% [at 2.29 µM] (inactive)

Request: Another compound to look at: NC(=O)CNC(=O)[C@@H]1CC2(CC(c3cccc([N+](=O)[O-])c3)=NO2)CN1C(=O)c1ccccc1 (some centres undefined)
Response: 8.44% [at 2.29 µM] (inactive)

Request: Would you kindly repeat that for "C[N+](C)(C)c1cc2c(nn1)Nc1ccccc1S2" ?
Response: -5.56% [at 11.4 µM] (inactive)

Request: "O=C(Nc1ccc(Cl)cc1)OCc1cc(-c2ccccc2Cl)on1" ?
Response: 28.2% [at 2.29 µM] (inactive)

Request: And the next one, "C=CC[C@@H](C(=O)O)c1ccccc1" ?
Response: -1.41% [at 11.4 µM] (inactive)

Request: Continue with "Cc1cccc(NC2=NC(=S)N(c3ccc(C(=O)O)cc3)C23CCCCC3)c1"
Response: 10.4% [at 2.29 µM] (inactive)

Request: "N[C@@H](CSCc1ccc(I)cc1)C(=O)O" ?
Response: -8.11% [at 11.4 µM] (inactive)

Request: Similarly, "CN(C)C=Nc1ccc2nn(-c3ccccc3)nc2c1" ?
Response: -3.41% [at 2.29 µM] (inactive)

Request: // same read-out, input: "FC(F)(F)c1nc(N2CCCC2)ncc1-c1nnnn1-c1ccccc1"
Response: 21% [at 2.29 µM] (inactive)

---

# TARGET: Cytochrome P450 3A4 (Homo sapiens)
# TEST: Cytochrome panel assay with activity outcomes
# CONDITION DESCRIPTION: recombinant CYP, pro-luciferin dealkylation, luminescence, p450-cyp3a4; series mostly up to 57.1 µM
About 5,100 (32%) of roughly 16,000 compounds were called active. About 25% were inconclusive and are not listed. The call rests on the fitted dose curve; in most records, active means well fitted curve in the direction sought with a large enough effect; inconclusive means small, poorly fitted or top-dose-only effect, or effect the other way; inactive means no such curve, though single readings can be large or run the other way. Some of the results follow.
Permitted responses: 1 for active, 0 for inactive

Request: Identify the outcome logged in this assay for the compound shown: "Cc1cccc(CNc2ncncc2-c2cccc(C#N)c2)c1"
Response: 1

Request: Subsequent entry: "N#Cc1cccc(-c2cncnc2NCc2ccccc2)c1"
Response: 1

Request: Follow-up item: "COC(=O)/C=C/CSC1=N/C(=C/c2ccc(-n3cncn3)cc2)C(=O)N1"
Response: 1

Request: What do we get for "Nc1nc2c(ncn2COCCO)c(=O)[nH]1" ?
Response: 0

Request: Okay, and "CCCCc1cc2ccccc2c(OCCN(C)C)n1" ?
Response: 0

Request: Queued: "COc1ccc(-n2c(=O)c(-c3ccc(F)cc3)nc3cncnc32)cc1"
Response: 0

Request: Okay, and "COc1ccc(-n2c(=O)c(-c3ccc(Cl)cc3)nc3cncnc32)cc1" ?
Response: 1

Request: Then "O=C(O)Cc1cc2ccccc2nc1C(=O)O" ?
Response: 0

Request: Try this compound next: "CCc1ccccc1NC(=S)NCc1ccc2c(c1)OCO2"
Response: 1

---

Provide the recorded AC50 for the entries that follow.
# TARGET: Cytochrome P450 3A4 (Homo sapiens)
# TEST: Cytochrome panel assay with activity outcomes
# CONDITION DESCRIPTION: recombinant CYP, pro-luciferin dealkylation, luminescence, p450-cyp3a4; series mostly up to 57.1 µM
The whole screen tested about 16,000 compounds, of which about 5,100 (32%) were called active. About 25% were inconclusive and are not listed. Some of the results follow.

Request: Fill in the recorded AC50 for this compound, with Cytochrome P450 3A4 (Homo sapiens) as test system: "COc1cccc(C=NC=Nc2cccc(OC)c2)c1"
Response: 20 µM (active)

Request: And the next one, "COC(=O)[C@@]1(Cc2ccc(F)cc2)[C@H]2c3cc(C(=O)N4CCCC4)n(CCc4ccc(OC)c(Br)c4)c3C[C@H]2CN1C(=O)c1ccccc1" ?
Response: 2.51 µM (active)

---

# TARGET: Cytochrome P450 3A4 (Homo sapiens) (UniProt P08684)
# Sequence (P08684 whole entry, looked up): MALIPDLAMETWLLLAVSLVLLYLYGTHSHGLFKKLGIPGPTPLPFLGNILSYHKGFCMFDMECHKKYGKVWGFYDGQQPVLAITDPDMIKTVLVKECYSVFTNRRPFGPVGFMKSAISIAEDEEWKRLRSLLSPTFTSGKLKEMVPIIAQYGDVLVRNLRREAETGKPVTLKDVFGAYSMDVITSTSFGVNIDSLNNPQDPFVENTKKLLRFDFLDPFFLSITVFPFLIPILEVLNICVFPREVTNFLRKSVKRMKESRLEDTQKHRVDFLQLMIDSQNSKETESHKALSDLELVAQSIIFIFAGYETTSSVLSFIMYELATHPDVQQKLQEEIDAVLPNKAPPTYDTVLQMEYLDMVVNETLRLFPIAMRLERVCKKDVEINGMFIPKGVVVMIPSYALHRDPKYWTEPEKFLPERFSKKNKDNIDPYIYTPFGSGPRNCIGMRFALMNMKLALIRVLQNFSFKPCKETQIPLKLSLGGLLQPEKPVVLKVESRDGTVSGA
# TEST: Cytochrome panel assay with activity outcomes
# CONDITION DESCRIPTION: recombinant CYP, pro-luciferin dealkylation, luminescence, p450-cyp3a4; series mostly up to 57.1 µM
Screen size: about 16,000 compounds; about 5,100 (32%) were called active. Inconclusive results (about 25%) are left out. Calls come from the whole dose curve; as a rule, active = well fitted curve in the direction sought with a large enough effect; inconclusive = small, poorly fitted or top-dose-only effect, or effect the other way; inactive = no such curve, though single readings can be large or run the other way. Some of the results follow.
The reply should be one of these categories: active, inactive

Request: Dear all, I need the recorded test outcome for "COc1ccc(CNc2ncnc3ccc(-c4ccccc4CN(C)C)cc23)c(OC)c1" , thank you.
Response: active

Request: Next compound: "COc1ccccc1-c1cc(C(F)(F)F)nc(S(=O)(=O)CCCC(=O)NC(C)C)n1"
Response: active

Request: Follow-up entry: "CCC(C#CCN1CCCCC1)(CC)OCCC#N"
Response: inactive
